All values here come from PubChem BioAssay (NCI).

test system: SF-539 CNS; assay: NCI tumour cell line growth inhibition, 48 h

| compound | subject_of_test | value_unit | comparison_sign | TGI |
| --- | --- | --- | --- | --- |
| CCC(C)N1CN(c2ccccc2)C2(CCN(CCCSc3ccc(F)cc3)CC2)C1=O (stereo not given) | SF-539 CNS | µM | = | 6.32 |
| CSc1ccc2c(cc1=O)C(NC(=O)c1ccc(C#N)cc1)CCc1cc(O)c(O)c(O)c1-2 (stereo not given) | SF-539 CNS | µM | = | 36.1 |
| C=C(CCC=C(C)C)C1CC=C(C)CC1 (stereo not given) | SF-539 CNS | µM | = | 68.2 |
| Cc1ccc(/N=N/C(=NNC(=O)c2ccc(C)cc2)c2ccc(N(C)C)cc2)cc1 | SF-539 CNS | µM | > | 100 |
| O=C1C=C(C2=C(C3=CC(=O)c4ccccc4C3=O)C(=O)c3ccccc3C2=O)C(=O)c2ccccc21 | SF-539 CNS | µM | = | 21.7 |
